- Tested on: A549 lung cancer cells
- MEASUREMENT_PROTOCOL: CAM inoculated with A549 lung cancer cells: angiogenesis and tumor growth
- Type: in vivo, chicken
- RUN_PARAMETERS: 1.0 pmol/CAM; A549 on CAM, 5 days
Kindly state Inhibition rates of tumor growth (%) for each of the entries shown.
Answers are plain numbers, in %.

Recorded results for 3 compounds are shown here.
>>> measured_value("Cc1nc(NC(=O)C2CCCC2)c(C)c(C)c1O")
62.7
>>> measured_value("CCCCCCCCCCCC(=O)Nc1nc(C)c(O)c(C)c1C")
38.2
>>> measured_value("CN(C)c1ccc(/C=C2\\C(=O)Nc3ccccc32)cc1 [SU4312, reference compound]")
26.8

Now let's try a different one.
Look at this compound and give its reported Inhibition rates of tumor growth (%). CC(=O)Nc1nc(C)c(O)c(C)c1C
47.7

Data provenance is patent US9802897B2.
